From: the supplement of paper PMC5998384

# Test system: HeLa Kyoto;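 also: synchronized HeLa Kyoto cells (double thymidine block for G1/S, nocodazole release for mitosis), protein amounts in NP-40 versus SDS lysates quantified by mass spectrometry, three biological replicates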
# protocolDescription: solubility change mitosis vs G1/S (difference of NP-40 vs SDS log2 ratios) (log2 ratio difference); higher = more soluble in mitosis
outcomeMeasure: solubility change mitosis (log2)
I only need the number, thanks.

Consider the worked cases shown below.
# chainSequence, solubility change mitosis (log2)
measured = [
    ("MERFVVTAPPARNRSKTALYVTPLDRVTEFGGELHEDGGKLFCTSCNVVLNHVRKSAISDHLKSKTHTKRKAEFEEQNVRKKQRPLTASLQCNSTAQTEKVSVIQDFVKMCLEANIPLEKADHPAVRAFLSRHVKNGGSIPKSDQLRRAYLPDGYENENQLLNSQDC [CGGBP1]", 0.0407),
    ("MSSRIARALALVVTLLHLTRLALSTCPAACHCPLEAPKCAPGVGLVRDGCGCCKVCAKQLNEDCSKTQPCDHTKGLECNFGASSTALKGICRAQSEGRPCEYNSRIYQNGESFQPNCKHQCTCIDGAVGCIPLCPQELSLPNLGCPNPRLVKVTGQCCEEWVCDEDSIKDPMEDQDGLLGKELGFDASEVELTRNNELIAVGKGSSLKRLPVFGMEPRILYNPLQGQKCIVQTTSWSQCSKTCGTGISTRVTNDNPECRLVKETRICEVRPCGQPVYSSLKKGKKCSKTKKSPEPVRFTYAGCLSVKKYRPKYCGSCVDGRCCTPQLTRTVKMRFRCEDGETFSKNVMMIQSCKCNYNCPHANEAAFPFYRLFNDIHKFRD [CYR61]", -0.133),
    ("MVLLTMIARVADGLPLAASMQEDEQSGRDLQQYQSQAKQLFRKLNEQSPTRCTLEAGAMTFHYIIEQGVCYLVLCEAAFPKKLAFAYLEDLHSEFDEQHGKKVPTVSRPYSFIEFDTFIQKTKKLYIDSRARRNLGSINTELQDVQRIMVANIEEVLQRGEALSALDSKANNLSSLSKKYRQDAKYLNMRSTYAKLAAVAVFFIMLIVYVRFWWL [SEC22B]", 0.0289),
    ("MAASALYACTKCTQRYPFEELSQGQQLCKECRIAHPIVKCTYCRSEFQQESKTNTICKKCAQNVKQFGTPKPCQYCNIIAAFIGTKCQRCTNSEKKYGPPQTCEQCKQQCAFDRKEEGRRKVDGKLLCWLCTLSYKRVLQKTKEQRKSLGSSHSNSSSSSLTEKDQHHPKHHHHHHHHHHRHSSSHHKISNLSPEEEQGLWKQSHKSSATIQNETPKKKPKLESKPSNGDSSSINQSADSGGTDNFVLISQLKEEVMSLKRLLQQRDQTILEKDKKLTELKADFQYQESNLRTKMNSMEKAHKETVEQLQAKNRELLKQVAALSKGKKFDKSGSILTSP [FAM76B]", 0.486),
    ("MSFLKSFPPPGPAEGLLRQQPDTEAVLNGKGLGTGTLYIAESRLSWLDGSGLGFSLEYPTISLHALSRDRSDCLGEHLYVMVNAKFEEESKEPVADEEEEDSDDDVEPITEFRFVPSDKSALEAMFTAMCECQALHPDPEDEDSDDYDGEEYDVEAHEQGQGDIPTFYTYEEGLSHLTAEGQATLERLEGMLSQSVSSQYNMAGVRTEDSIRDYEDGMEVDTTPTVAGQFEDADVDH [CLNS1A]", 0.0376),
]

Alright, here's another sequence for you.
So, MKDVPGFLQQSQNSGPGQPAVWHRLEELYTKKLWHQLTLQVLDFVQDPCFAQGDGLIKLYENFISEFEHRVNPLSLVEIILHVVRQMTDPNVALTFLEKTREKVKSSDEAVILCKTAIGALKLNIGDLQVTKETIEDVEEMLNNLPGVTSVHSRFYDLSSKYYQTIGNHASYYKDALRFLGCVDIKDLPVSEQQERAFTLGLAGLLGEGVFNFGELLMHPVLESLRNTDRQWLIDTLYAFNSGNVERFQTLKTAWGQQPDLAANEAQLLRKIQLLCLMEMTFTRPANHRQLTFEEIAKSAKITVNEVELLVMKALSVGLVKGSIDEVDKRVHMTWVQPRVLDLQQIKGMKDRLEFWCTDVKSMEMLVEHQAHDILT [PSMD13] ? Its solubility change mitosis (log2) was -0.181
